target: Lp-PLA2 enzyme in human plasma (Homo sapiens, UniProt Q13093); construct: from tissue; host or cells: pooled (mixed) human plasma; test: Human plasma Lp-PLA2 assay (Thio-PAF assay); format: biochemical; settings: mixed human plasma; 2-thio-PAF substrate with CPM; 30 min pre-incubation; fluorescence ex 380/em 485; read-out: Thio-PAF (pIC50) (converted)
measured.property: IC50 (nM)

>>> data_value("O=c1nc(OCc2cc(F)c(Oc3ccc(C(F)(F)F)nc3)c(F)c2)c2c3n1CCCN3CCO2 [Compound 16]")
10
>>> data_value("Cc1ccc(Oc2c(F)cc(COc3nc(=O)n4c5c3OCCN5CC4)cc2F)cn1 [Compound 7]")
20
>>> data_value("O=c1nc(OCc2cc(F)c(Oc3ccnc(C(F)(F)F)c3)c(F)c2)c2c3n1CCCN3CCO2 [Compound 15]")
7.94
>>> data_value("O=c1nc(OCc2cccc(F)c2F)c2c3n1CCN3CCO2 [Compound 2]")
158
>>> data_value("Cc1cc(Oc2c(F)cc(COc3nc(=O)n4c5c3OCCN5CC4)cc2F)ccc1Cl [Compound 14]")
15.8
>>> data_value("O=c1nc(OCc2cccc(F)c2F)c2c3n1CCCN3CCO2 [Compound 18]")
126
>>> data_value("O=c1nc(OCc2cc(F)c(Oc3ccc(OC(F)(F)F)c(Cl)c3)c(F)c2)c2c3n1CCN3CCO2 [Compound 12]")
15.8
>>> data_value("O=c1nc(OCc2cc(F)c(Oc3ccnc(C(F)(F)F)c3)c(F)c2)c2c3n1CCN3CCO2 [Compound 4]")
12.6

* * *

biological target: Recombinant human Lp-PLA2 (Homo sapiens); test: Recombinant human Lp-PLA2 (rhLp-PLA2) assay (PED6 assay); format: biochemical; settings: PED6 substrate; recombinant human Lp-PLA2 enzyme at 4 nM or 110 pM; 30 min pre-incubation; fluorescence ex 480/em 540; read-out: rhLp-PLA2 (pIC50) (converted)
Sequence (Q13093 22-441): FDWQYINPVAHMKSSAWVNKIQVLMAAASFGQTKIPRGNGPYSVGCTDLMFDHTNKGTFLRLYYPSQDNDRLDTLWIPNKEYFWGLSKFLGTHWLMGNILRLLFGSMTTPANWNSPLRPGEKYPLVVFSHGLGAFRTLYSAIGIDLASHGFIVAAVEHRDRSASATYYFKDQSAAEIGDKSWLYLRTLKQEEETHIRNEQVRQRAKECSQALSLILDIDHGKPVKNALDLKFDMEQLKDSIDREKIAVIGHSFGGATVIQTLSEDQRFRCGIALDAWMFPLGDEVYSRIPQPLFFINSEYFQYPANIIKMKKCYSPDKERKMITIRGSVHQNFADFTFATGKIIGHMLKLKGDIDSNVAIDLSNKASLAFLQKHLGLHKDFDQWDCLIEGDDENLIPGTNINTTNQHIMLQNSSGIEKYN
measured.property: IC50 (nM)

>>> data_value("O=c1nc(OCc2cc(F)c(Oc3ccc(Cl)c(C(F)(F)F)c3)c(F)c2)c2c3n1CCN3CCO2 [Compound 13]")
0.158
>>> data_value("O=c1nc(OCc2cccc(F)c2F)c2c3n1CCCN3CCO2 [Compound 18]")
10
>>> data_value("O=c1nc(OCc2cc(F)c(Oc3ccc(C(F)(F)F)nc3)c(F)c2)c2c3n1CCN3CCO2 [Compound 5]")
0.2
>>> data_value("O=c1nc(OCc2cc(F)c(Oc3cccc(OC(F)(F)F)c3)c(F)c2)c2c3n1CCN3CCO2 [Compound 10]")
0.2
>>> data_value("Cc1cc(Oc2c(F)cc(COc3nc(=O)n4c5c3OCCN5CC4)cc2F)ccc1Cl [Compound 14]")
0.2
>>> data_value("O=c1nc(OCc2cc(F)c(Oc3ccc(OC(F)(F)F)c(Cl)c3)c(F)c2)c2c3n1CCN3CCO2 [Compound 12]")
0.0794
>>> data_value("O=c1nc(OCc2cc(F)c(F)c(F)c2)c2c3n1CCN3CCO2 [Compound 3]")
3.16
>>> data_value("O=c1nc(OCc2cc(F)c(F)c(F)c2)c2c3n1CCCN3CCO2 [Compound 19]")
3.98

# credit: patent US20230271980A1
